- Experimental system: human GR (Homo sapiens, UniProt P04150)
- Construct: naturally expresses the human GR; endogenous in cells
- Sequence (P04150 1-777): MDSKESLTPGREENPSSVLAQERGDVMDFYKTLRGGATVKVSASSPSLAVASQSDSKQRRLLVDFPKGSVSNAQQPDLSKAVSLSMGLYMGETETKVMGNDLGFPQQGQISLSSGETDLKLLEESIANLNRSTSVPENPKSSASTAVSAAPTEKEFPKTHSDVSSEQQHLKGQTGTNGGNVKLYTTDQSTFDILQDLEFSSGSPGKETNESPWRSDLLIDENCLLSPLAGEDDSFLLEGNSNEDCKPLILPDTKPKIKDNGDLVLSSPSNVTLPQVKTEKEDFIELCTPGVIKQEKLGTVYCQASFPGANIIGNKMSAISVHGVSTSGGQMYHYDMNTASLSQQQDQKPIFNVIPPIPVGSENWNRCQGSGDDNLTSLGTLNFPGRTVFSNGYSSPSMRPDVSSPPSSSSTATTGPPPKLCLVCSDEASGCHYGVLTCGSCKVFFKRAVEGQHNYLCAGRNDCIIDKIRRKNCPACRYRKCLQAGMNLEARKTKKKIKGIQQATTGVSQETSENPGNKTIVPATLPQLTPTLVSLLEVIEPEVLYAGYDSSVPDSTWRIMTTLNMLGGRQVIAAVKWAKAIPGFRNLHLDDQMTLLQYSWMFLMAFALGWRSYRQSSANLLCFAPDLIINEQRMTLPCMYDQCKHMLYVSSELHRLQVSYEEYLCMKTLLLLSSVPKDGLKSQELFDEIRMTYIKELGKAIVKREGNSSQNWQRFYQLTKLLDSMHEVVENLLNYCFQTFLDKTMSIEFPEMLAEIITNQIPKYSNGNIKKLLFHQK
- Protocol summary: Transrepression assay (GITAR), TNFα-β-lactamase reporter in U937 cells
- Assay type: cell-based
- Conditions used: U937 cells; IP = inflection point
Quantity name: pEC50
The read-out pEC50 is expressed as -log10 of concentration in moles per litre.

Please review the entries below; each comes with its answer.
compound="CC[C@]12Cc3cnn(-c4ccc(F)cc4)c3C=C1CC[C@@]2(O)CC(O)c1ccc(F)cn1 (single isomer, unassigned) [Example 69a]" result_value=6.95
compound=NC(=O)c1c(C(F)(F)F)ccnc1CC[C@]1(O)CCC2=Cc3c(cnn3-c3ccc(F)cc3)C[C@@]21C1CC1 result_value=8.70
compound=CC[C@]12Cc3cnn(-c4ccccc4)c3C=C1CC[C@@]2(O)CCc1ncccc1S(=O)(=O)C(C)C result_value=7.28
compound=CC[C@]12Cc3cnn(-c4cccc(F)c4)c3C=C1CC[C@@]2(O)CCc1cccc(F)c1C(N)=O result_value=7.60
compound=NC(=O)c1ccccc1CC[C@]1(O)CCC2=Cc3c(cnn3-c3ccccc3)C[C@@]21C1CC1 result_value=7.33
compound=CS(=O)(=O)c1ccccc1CC[C@]1(O)CCC2=Cc3c(cnn3-c3ccc(F)cc3)C[C@@]21C1CC1 result_value=8.30

In the following, a different compound is considered.
In: Reported pEC50, compound CC[C@]12Cc3cnn(-c4ccc(F)cc4)c3C=C1CC[C@@]2(O)CCc1ccccc1CCC(N)=O : ____
Out: 6.83
